Molecular target: 5-HT2A (Homo sapiens, UniProt P28223)
Sequence (P28223 whole entry): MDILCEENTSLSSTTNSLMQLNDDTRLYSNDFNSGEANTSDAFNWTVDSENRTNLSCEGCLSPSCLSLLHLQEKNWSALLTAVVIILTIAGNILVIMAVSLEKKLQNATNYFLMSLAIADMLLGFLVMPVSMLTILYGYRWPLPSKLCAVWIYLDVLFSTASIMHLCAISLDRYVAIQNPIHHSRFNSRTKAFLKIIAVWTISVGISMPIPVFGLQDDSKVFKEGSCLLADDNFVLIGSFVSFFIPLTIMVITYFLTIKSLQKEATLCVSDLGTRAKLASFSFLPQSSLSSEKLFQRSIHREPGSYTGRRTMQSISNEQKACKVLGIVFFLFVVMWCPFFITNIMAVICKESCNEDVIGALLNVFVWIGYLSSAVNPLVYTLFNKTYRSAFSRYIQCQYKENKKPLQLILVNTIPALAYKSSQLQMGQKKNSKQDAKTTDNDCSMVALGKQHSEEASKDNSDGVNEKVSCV
Assay: Functional activity at 5-HT2A
Details: internally generated data
MEASURE: EC50 (nM)
State the answer as a number, implicitly in nM.

EC50 in this record for C[C@@H]1CNCCN1c1cc(Cl)ccc1F [AR630] : 400

* * *

Test: Brain drug concentrations 60 min after single oral dose (LC-MS/MS)
Type: in vivo, rat
Settings: Sprague-Dawley, rat, brain, oral, AR630 1 mg/kg PO with phentermine 1 mg/kg, 60 min, rat, mean ± SEM; read-out: Brain concentration, combination
MEASURE: concentration at 60 min (ng/g)
Give the value, in units of ng/g, as a plain number.

concentration at 60 min reading for C[C@@H]1CNCCN1c1cc(Cl)ccc1F [AR630] : 92
